We begin with a simple list: items and their reported inhibition.
- SYSTEM_TESTED: Histone deacetylase 11 (Homo sapiens) (UniProt Q96DB2)
- Sequence (whole entry): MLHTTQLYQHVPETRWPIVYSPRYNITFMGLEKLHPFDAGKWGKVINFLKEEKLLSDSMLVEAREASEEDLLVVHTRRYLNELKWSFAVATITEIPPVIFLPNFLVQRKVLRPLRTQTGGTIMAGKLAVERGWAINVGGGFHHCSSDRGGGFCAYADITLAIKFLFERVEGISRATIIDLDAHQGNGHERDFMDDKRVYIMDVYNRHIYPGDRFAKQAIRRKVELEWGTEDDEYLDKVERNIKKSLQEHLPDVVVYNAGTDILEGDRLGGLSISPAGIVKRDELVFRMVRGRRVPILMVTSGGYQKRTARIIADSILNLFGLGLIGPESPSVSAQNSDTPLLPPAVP
- TEST_DESCRIPTION: Inhibition of HDAC11 using Fluor-de-Lys as substrate at 100 uM by spectrofluorometry

TEST_SMILES | OBSERVED
C[C@@H](NC(=S)NC(=O)c1ccccc1)c1ccccc1 | 8%

Turning now to a further compound:
Item under review: "O=C(NC(=S)NCc1cc(C(F)(F)F)cc(C(F)(F)F)c1)c1ccccc1" . Reported inhibition?
10%
